Reference source: ChEMBL document CHEMBL2073857

test target: Multidrug resistance-associated protein 1 (MRP1) (Homo sapiens, UniProt P33527)
Sequence (P33527 whole entry): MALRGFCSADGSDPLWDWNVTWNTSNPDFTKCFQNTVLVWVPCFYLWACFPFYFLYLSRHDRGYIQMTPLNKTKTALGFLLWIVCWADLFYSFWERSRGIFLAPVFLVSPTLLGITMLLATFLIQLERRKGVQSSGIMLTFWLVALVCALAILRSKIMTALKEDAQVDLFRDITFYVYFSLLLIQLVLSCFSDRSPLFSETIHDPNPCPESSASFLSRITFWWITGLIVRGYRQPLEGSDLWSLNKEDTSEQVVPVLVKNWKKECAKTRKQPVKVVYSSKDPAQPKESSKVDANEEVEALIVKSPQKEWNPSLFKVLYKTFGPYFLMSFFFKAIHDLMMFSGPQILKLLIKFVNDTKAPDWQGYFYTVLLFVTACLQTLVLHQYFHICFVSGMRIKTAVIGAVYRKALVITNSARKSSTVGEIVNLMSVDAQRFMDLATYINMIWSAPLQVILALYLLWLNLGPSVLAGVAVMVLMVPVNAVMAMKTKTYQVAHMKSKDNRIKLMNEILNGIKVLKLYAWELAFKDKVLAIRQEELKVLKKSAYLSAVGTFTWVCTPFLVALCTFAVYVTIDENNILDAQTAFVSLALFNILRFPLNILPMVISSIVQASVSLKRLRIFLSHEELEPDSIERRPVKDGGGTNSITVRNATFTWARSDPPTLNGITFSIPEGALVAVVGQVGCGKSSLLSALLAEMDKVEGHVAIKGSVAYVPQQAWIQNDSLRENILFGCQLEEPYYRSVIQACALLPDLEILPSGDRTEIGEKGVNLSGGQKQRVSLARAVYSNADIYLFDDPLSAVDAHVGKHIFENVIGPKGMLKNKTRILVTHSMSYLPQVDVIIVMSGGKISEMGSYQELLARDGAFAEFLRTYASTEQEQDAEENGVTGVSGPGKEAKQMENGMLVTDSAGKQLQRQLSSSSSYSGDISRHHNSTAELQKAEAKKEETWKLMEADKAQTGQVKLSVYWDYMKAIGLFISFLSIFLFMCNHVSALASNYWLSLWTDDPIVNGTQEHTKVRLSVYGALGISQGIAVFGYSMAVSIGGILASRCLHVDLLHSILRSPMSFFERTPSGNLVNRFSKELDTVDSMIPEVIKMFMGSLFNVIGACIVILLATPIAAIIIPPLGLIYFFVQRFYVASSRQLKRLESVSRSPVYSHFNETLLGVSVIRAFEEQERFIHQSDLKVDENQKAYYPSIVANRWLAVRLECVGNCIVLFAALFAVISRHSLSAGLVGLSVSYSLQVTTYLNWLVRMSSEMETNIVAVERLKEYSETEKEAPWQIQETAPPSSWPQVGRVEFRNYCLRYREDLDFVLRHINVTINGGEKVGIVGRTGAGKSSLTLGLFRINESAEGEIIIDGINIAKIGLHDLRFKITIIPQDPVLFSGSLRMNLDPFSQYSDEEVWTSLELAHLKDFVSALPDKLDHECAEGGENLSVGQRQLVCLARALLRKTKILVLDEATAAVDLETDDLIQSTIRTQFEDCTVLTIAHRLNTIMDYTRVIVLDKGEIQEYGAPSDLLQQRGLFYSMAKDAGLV
procedure summary: TP_TRANSPORTER: inhibition of LTC4 uptake (LTC4: 0.00134 uM, ONO-1078: 100 uM) in membrane vesicles from CV60 cells
Type: functional, cell membranes, Membrane vesicle
Parameters: scale not given: the % may be the effect or the level left
test parameters: probe LTC4 (0.00134 uM), read-out: Activity
metric: activity at 100 µM (%)
Answers are plain numbers, in %.

### Prompt Value wanted: activity at 100 µM (Multidrug resistance-associated protein 1 (MRP1) (Homo sapiens, UniProt P33527)) of entry O=C(Nc1cccc2c(=O)cc(-c3nnn[nH]3)oc12)c1ccc(OCCCCc2ccccc2)cc1 [PRANLUKAST]
### Response 55
